# ASSAY TARGET: PD-1/PD-L1 interaction (Homo sapiens)
# Construct: expressed in transfected cells; host or cells: CHO cells (aAPC-PD-L1) co-cultured with Jurkat cells overexpressing PD-1 and an NFAT-luciferase reporter
# ASSAY NAME: PD-1/PD-L1 NFAT reporter co-culture assay
# Assay type: cell-based
# MEASUREMENT CONDITIONS: Jurkat PD-1 NFAT-luciferase cells co-cultured with aAPC-PD-L1 CHO cells, 6 hrs at 37° C.; read-out: EC50 NFAT Luciferase
# Lookup of reported log10 EC50 keyed by entry
ENDPOINT NAME: log10 EC50 (log10 of the value in µM)

COMPOUND	ASSAY TARGET	log10 EC50
Cc1c(COc2cc(OCc3cncc(C#N)c3)c(CNC[C@@H](O)CC(=O)O)cc2Cl)cccc1-c1cccc(-c2ccc(CNC[C@@H](O)CC(=O)O)c(SC(F)F)c2)c1C	PD-1/PD-L1 interaction (Homo sapiens)	-0.95
Cc1c(COc2nc(OCC3CCO3)c(CNC[C@@H](O)CC(=O)O)cc2Br)cccc1-c1cccc(COc2nc(OCC3CCO3)c(CNC[C@@H](O)CC(=O)O)cc2Br)c1C (stereo partly shown)	PD-1/PD-L1 interaction (Homo sapiens)	-0.02
COc1cc(OCc2cccc(-c3cccc(COc4cc(OC)c(CNC[C@@H](O)CC(=O)O)c(OCc5cncc(C#N)c5)c4)c3C)c2C)cc(OCc2cncc(C#N)c2)c1CNC[C@@H](O)CC(=O)O	PD-1/PD-L1 interaction (Homo sapiens)	0.54
COc1nc(O[C@H]2CCc3c(-c4cccc(-c5ccc(CNC[C@@H]6CCC(=O)N6)cc5)c4Cl)cccc32)c(Cl)cc1CNC[C@@H]1CCC(=O)N1	PD-1/PD-L1 interaction (Homo sapiens)	-1.00
Cc1c(COc2cc(OCc3cncc(C#N)c3)c(CNC[C@@H](O)CC(=O)O)cc2Cl)cccc1-c1cccc(-c2ccc(OC[C@@H](N)CO)cc2)c1C	PD-1/PD-L1 interaction (Homo sapiens)	-0.82
COc1nc(-c2cccc(-c3cccc(-c4nc5cc(CNCCO)ccc5o4)c3Cl)c2Cl)ccc1CNCCO	PD-1/PD-L1 interaction (Homo sapiens)	-0.74
Cc1c(COc2cc(OCc3cncc(C#N)c3)c(CNC[C@@H](O)CC(=O)O)cc2Cl)cccc1-c1ccc2c(c1)OC(CNC[C@@H](O)CC(=O)O)CO2 (stereo partly shown)	PD-1/PD-L1 interaction (Homo sapiens)	1.14
C[C@@](CO)(NCc1cc(Br)c(O[C@H]2CCc3c(-c4cccc(-c5ccc(CNC[C@@H]6CCC(=O)N6)cc5)c4Cl)cccc32)nc1OCc1cncc(C#N)c1)C(=O)O	PD-1/PD-L1 interaction (Homo sapiens)	-1.92
N#Cc1cncc(COc2nc(OCc3cccc(-c4cccc(-c5ccc(CNC[C@@H]6CCC(=O)N6)cc5)c4Cl)c3Cl)c(Br)cc2CNC[C@@H]2CCC(=O)N2)c1	PD-1/PD-L1 interaction (Homo sapiens)	-0.99
COc1nc(OCc2cccc(-c3cccc(COc4nc(OC)c(CN[C@@H]5CC[C@H](C(=O)O)C5)cc4Cl)c3C)c2C)c(Cl)cc1CN[C@@H]1CC[C@H](C(=O)O)C1	PD-1/PD-L1 interaction (Homo sapiens)	-0.71
Cc1c(COc2cc(OCc3cncc(C#N)c3)c(CN[C@@](C)(CO)C(=O)O)cc2Cl)cccc1-c1cccc(-c2ccc(CNC3CNC(=O)C3)cc2)c1C (stereo partly shown)	PD-1/PD-L1 interaction (Homo sapiens)	-0.77
Cc1c(COc2cc(OCc3cncc(C#N)c3)c(CNCCO)cc2Cl)cccc1-c1cccc(COc2cc(OCc3ccc(F)c(C#N)c3)c(CNCCO)cc2Cl)c1C	PD-1/PD-L1 interaction (Homo sapiens)	-0.05
COc1nc(O[C@H]2CCc3c(-c4cccc(-c5ccc6c(c5)C[C@@H](N)C6)c4Cl)cccc32)c(Br)cc1CN[C@@](C)(CO)C(=O)O	PD-1/PD-L1 interaction (Homo sapiens)	-0.74
C[C@@](CO)(NCc1cc(Cl)c(O[C@H]2CCc3c(-c4cccc(-c5ccc6c(c5)C[C@@H](N)C6)c4Cl)cccc32)nc1OCc1cncc(C#N)c1)C(=O)O	PD-1/PD-L1 interaction (Homo sapiens)	-1.92
COc1nc(OCc2cccc(-c3cccc(COc4nc(OC)c(CNC[C@H](O)CC(=O)O)cc4Br)c3C)c2C)c(Br)cc1CNC[C@H](O)CC(=O)O	PD-1/PD-L1 interaction (Homo sapiens)	-0.73
Cc1c(COc2nc(OCc3cncc(S(C)(=O)=O)c3)c(CN[C@](C)(CO)C(=O)O)cc2Br)cccc1-c1cccc(COc2nc(OCc3cncc(S(C)(=O)=O)c3)c(CN[C@](C)(CO)C(=O)O)cc2Br)c1C	PD-1/PD-L1 interaction (Homo sapiens)	-0.75
Cc1c(COc2cc(OCc3cncc(C#N)c3)c(CNC[C@@H](O)CC(=O)O)cc2Cl)cccc1-c1cccc(-c2cn(C3CCNCC3)nn2)c1C	PD-1/PD-L1 interaction (Homo sapiens)	0.21
C[C@@](CO)(NCc1cc(Br)c(OCc2cccc(-c3cccc(COc4nc(OCc5cncc(C#N)c5)c(CN[C@@](C)(CO)C(=O)O)cc4Br)c3Cl)c2Cl)nc1OCc1cncc(C#N)c1)C(=O)O	PD-1/PD-L1 interaction (Homo sapiens)	-1.01
COc1nc(OCc2cccc(-c3cccc(COc4nc(OC)c(CNC[C@@H](O)CC(=O)O)cc4Br)c3C)c2C)c(Br)cc1CNC[C@@H](O)CC(=O)O	PD-1/PD-L1 interaction (Homo sapiens)	-0.71
C=Cc1cc(CNCCO)c(OCc2cncc(C#N)c2)cc1OCc1cccc(-c2cccc(COc3cc(OCc4cncc(C#N)c4)c(CNCCO)cc3C=C)c2C)c1C	PD-1/PD-L1 interaction (Homo sapiens)	0.03

* * *

# ASSAY TARGET: PD-1/PD-L1 (Homo sapiens)
# ASSAY NAME: PD-1/PD-L1 biochemical protein-protein interaction assay (ALPHA)
# MEASUREMENT CONDITIONS: 0.3 nM His tagged PD-L1, 2.5 nM biotinylated Fc-PD-1, 60 minutes at 25° C., read-out: IC50 PD-L1-PD-1 Alpha IC50-mono PD-L1-fcP-D1
ENDPOINT NAME: IC50 (nM)

>>> df
                           structure_string  data_value
0  COc1nc(O[C@H]2CCc3c(-c4cccc(-c5ccc(CNC[C@@H]6CCC(=O)N6)cc5)c4Cl)cccc32)c(Cl)cc1CN[C@@](C)(CO)C(=O)O       0.064
1  Cc1c(COc2cc(OCc3cncc(C#N)c3)c(CN[C@@](C)(CO)C(=O)O)cc2Cl)cccc1-c1cccc(-c2ccc(OCCN3CCC4(CCCNC4=O)CC3)cc2)c1C       0.065
2  C[C@@](CO)(NCc1ccc(O[C@H]2CCc3c(-c4cccc5c4CC[C@@H]5Oc4nc(OCc5cncc(C#N)c5)c(CN[C@@](C)(CO)C(=O)O)cc4Cl)cccc32)cc1)C(=O)O       0.552

* * *

# ASSAY TARGET: PD-L1 (Homo sapiens)
# Construct: determine if they can specifically dimerize the extracellular domains of PD-L1
# Sequence (Q9NZQ7 19-238 limits assumed): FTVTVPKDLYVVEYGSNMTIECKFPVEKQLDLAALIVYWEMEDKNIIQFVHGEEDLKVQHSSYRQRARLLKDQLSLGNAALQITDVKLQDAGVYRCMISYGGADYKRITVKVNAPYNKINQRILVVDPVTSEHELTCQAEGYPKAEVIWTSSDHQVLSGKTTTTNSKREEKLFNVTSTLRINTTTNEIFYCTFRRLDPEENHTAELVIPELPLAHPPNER
# Sequence (Q9NZQ7 19-238 limits assumed): as above
# ASSAY NAME: PD-L1/PD-L1 dimerization biochemical protein-protein interaction assay (ALPHA)
# Format: binding
# MEASUREMENT CONDITIONS: compound-induced PD-L1 dimerization, head prints '1 nM' (0.5 nM His-tagged PD-L1 and 0.5 nM FLAG-tagged PD-L1), read-out: AC50 PDL1 Dimer Alpha 1 nM
ENDPOINT NAME: AC50 (nM)

COMPOUND	ASSAY TARGET	ENDPOINT NAME	U	VALUE PREFIX	DATA VALUE
Cc1c(COc2cc(OCc3cncc(C#N)c3)c(CN[C@@](C)(CO)C(=O)O)cc2Cl)cccc1-c1cccc(-c2ccc(OCCN3CCC4(CC3)CNC(=O)C4)cc2)c1C [Example 521]	PD-L1 (Homo sapiens)	AC50	nM	=	125
COc1nc(OCc2cccc(-c3cccc(-c4ccc(CNC[C@@H]5CCC(=O)N5)cc4)c3Cl)c2Cl)c(Br)cc1CNC[C@@H]1CCC(=O)N1 [Example 431]	PD-L1 (Homo sapiens)	AC50	nM	=	249
N#Cc1cncc(COc2cc(OCc3cccc(-c4cccc(COc5cc(OCc6cncc(C#N)c6)c(CNC[C@@H](O)CC(=O)O)cc5Cl)c4Br)c3Br)c(Cl)cc2CNC[C@@H](O)CC(=O)O)c1 [Example 479]	PD-L1 (Homo sapiens)	AC50	nM	=	348
C[C@@](CO)(NCc1ccc(O[C@H]2CCc3c(-c4cccc5c4CC[C@@H]5Oc4nc(OCc5cncc(C#N)c5)c(CN[C@@](C)(CO)C(=O)O)cc4Cl)cccc32)cc1)C(=O)O [Example 685]	PD-L1 (Homo sapiens)	AC50	nM	=	1820
Cc1c(COc2cc(OCc3cncc(C#N)c3)c(CNC[C@@H](O)CC(=O)O)cc2Cl)cccc1-c1cccc(-c2ccc(CN(C)C)cc2)c1C [Example 383]	PD-L1 (Homo sapiens)	AC50	nM	=	157
Cc1c(COc2cc(OCc3cncc(C#N)c3)c(CNC[C@@H](O)CC(=O)O)cc2Cl)cccc1-c1cccc(-c2ccc3c(c2)CC(=O)N3CCN(C)C)c1C [Example 448]	PD-L1 (Homo sapiens)	AC50	nM	=	903
C[C@@](CO)(NCc1cc(Cl)c(O[C@H]2CCc3c(-c4cccc(-c5ccc(C6=NCCN6)cc5)c4Cl)cccc32)nc1OCc1cncc(C#N)c1)C(=O)O [Example 738]	PD-L1 (Homo sapiens)	AC50	nM	=	8.06
Cc1c(COc2cc(OCc3cncc(C#N)c3)c(CNC(C)(CO)C(=O)O)cc2Cl)cccc1-c1cccc(-c2ccc(CN3CC4(CNC4)C3)cc2)c1C (stereo not drawn) [Example 451]	PD-L1 (Homo sapiens)	AC50	nM	=	105
CNCc1cc(Cl)c(O[C@H]2CCc3c(-c4cccc(-c5ccc(OCCN6CC[C@@H](O)C6)cc5)c4Cl)cccc32)nc1OCc1cncc(S(C)(=O)=O)c1 [Example 664]	PD-L1 (Homo sapiens)	AC50	nM	≥	10000
Cc1c(COc2cc(OCc3cncc(C#N)c3)c(CN3CCCC[C@H]3C(=O)O)cc2Cl)cccc1-c1cccc(-c2ccc(OCCNCCO)cc2)c1C [Example 344]	PD-L1 (Homo sapiens)	AC50	nM	=	55
Cc1c(COc2cc(OCc3cncc(C#N)c3)c(CN[C@@](C)(CO)C(=O)O)cc2Cl)cccc1-c1cccc(-c2nnc(CCN3CC[C@@H](O)C3)o2)c1C [Example 453]	PD-L1 (Homo sapiens)	AC50	nM	=	326
N#Cc1cncc(COc2nc(O[C@H]3CCc4c(-c5cccc(-c6nc7ccc(CNC[C@@H](O)CC(=O)O)cn7n6)c5Cl)cccc43)c(Cl)cc2CNC[C@@H](O)CC(=O)O)c1 [Example 803]	PD-L1 (Homo sapiens)	AC50	nM	=	11.7
COc1nc(-c2cccc(-c3cccc(-c4nc5cc(CNCCO)cc(OC)c5o4)c3Cl)c2Cl)ccc1CNCCO [Example 634]	PD-L1 (Homo sapiens)	AC50	nM	=	96.9
COc1cc(-c2cccc(-c3cccc(COc4nc(OCc5cncc(C#N)c5)c(CNC[C@@H]5CCC(=O)N5)cc4Br)c3Cl)c2Cl)ccc1CNC[C@@H]1CCC(=O)N1 [Example 541]	PD-L1 (Homo sapiens)	AC50	nM	=	70.4
COc1nc(O[C@H]2CCc3c(-c4cccc(-c5cnc6c(CNC[C@@H]7CCC(=O)N7)cn(C)c6n5)c4Cl)cccc32)c(Cl)cc1CN1CC(C(=O)O)C1 [Example 529]	PD-L1 (Homo sapiens)	AC50	nM	=	56.2
Cc1c(COc2cc(OCc3cncc(C#N)c3)c(CNC[C@@H](O)CC(=O)O)cc2Cl)cccc1-c1cccc(Nc2nccc3cc(CNCCO)cnc23)c1C [Example 438]	PD-L1 (Homo sapiens)	AC50	nM	=	168
COc1nc(O[C@H]2CCc3c(-c4cccc(-c5cnc(CNC[C@@H]6CCC(=O)N6)c(OC)n5)c4Cl)cccc32)c(Cl)cc1CN1CC[C@@H](C(=O)O)C1 [Example 768]	PD-L1 (Homo sapiens)	AC50	nM	=	47.4
COc1cc(OCc2cccc(-c3cccc(COc4cc(OC)c(CNC[C@@H](O)CC(=O)O)cc4C(F)(F)F)c3C)c2C)c(Cl)cc1CNC[C@@H](O)CC(=O)O [Example 357]	PD-L1 (Homo sapiens)	AC50	nM	≥	10000
COc1nc(-c2cccc(-c3cccc4c3CC[C@@H]4Oc3nc(OCc4cncc(C#N)c4)c(CN[C@@](C)(CO)C(=O)O)cc3Br)c2Cl)ccc1CNC[C@@H]1CCC(=O)N1 [Example 747]	PD-L1 (Homo sapiens)	AC50	nM	=	5.36
COc1nc(-c2cccc(-c3cccc(-c4ccc5c(c4)C[C@@H](N)C5)c3Cl)c2Cl)ccc1CN1CC2(CCC(=O)N2)C1 [Example 613]	PD-L1 (Homo sapiens)	AC50	nM	=	158
COc1nc(-c2cccc(-c3cccc4c3CC[C@@H]4Oc3nc(OC)c(CN[C@@](C)(CO)C(=O)O)cc3Br)c2Br)ccc1CNC[C@@H]1CCC(=O)N1 [Example 697]	PD-L1 (Homo sapiens)	AC50	nM	=	51
